This collection of values is drawn from PubChem BioAssay (NCI).

Provide the recorded growth for the entries that follow.
- Tested on: HCT-116 colon
- TEST_SUMMARY: NCI-60 one-dose screen, 48 h (100 = growth as untreated, 0 = no growth, -100 = all killed)
- EXPERIMENTAL_PARAMETERS: 10 µM unless noted
The panel holds about 83,000 compounds, 20% with a hit somewhere; the sample as a whole holds those more often.
Answers are plain numbers, in %.

For record CC[C@@H]1OC(=O)[C@H](C)[C@@H](O[C@H]2C[C@@](C)(OC)[C@@H](O)[C@H](C)O2)[C@H](C)[C@@H](O[C@@H]2O[C@H](C)C[C@H](N(C)C)[C@H]2O)[C@](C)(O)C[C@@H](C)[C@@H]2N[C@@H](COCCOC)O[C@H]([C@H]2C)[C@]1(C)O the listed growth is 85.6

For record CN(C(=O)c1ccccc1)N(C)C(=O)c1ccccc1 the listed growth is 100

For record Fc1ccc(-c2nc(Nc3ccc(-c4nc5ccccc5[nH]4)cc3)nc(N3CCOCC3)n2)cc1 the listed growth is -85.5

For record CCCCC(C#N)C(N)=O (stereo unspecified) the listed growth is 98.4

For record Cc1ccc(C=C2C(Cl)=C(Cl)C(Cl)=C2Cl)cc1 the listed growth is -100

For each of the molecules below, state growth.
1. Clc1ccc2nc(Cl)c3ccccc3c2c1
2. O=C(O)c1ccccc1C(=O)OC1CCCC2CCCC21 (stereo unspecified)
3. COc1cc2c(cc1OCCCCCn1c(-c3ccc(OCc4ccccc4)cc3)nc3cc(N4CCOCC4)ccc31)N=C[C@@H]1CCCN1C2=O
4. COc1ccc(OC)c2c1[nH]c(=O)c1c3ccccc3cn21
5. CCN(CC)CCCCNc1c2ccccc2[n+](C)c2c1[nH]c1ccccc12
6. CCOC(=O)c1c(NC(=O)C2CCCCC2C(=O)O)sc2c1CCCC2 (stereo unspecified)
7. O=[N+]([O-])c1ccc2c(c1)S(=O)c1cc([N+](=O)[O-])ccc1N2

Output:
[19.4, 112, 2.97, -71.5, 0.472, 109, 94]

For each of the molecules below, state growth.
1. CN(C)c1ccc2c(c1)/C(=N/O)c1ccccc1-2
2. Nc1nonc1-c1nc2ccccc2n1CC(=O)Nc1ccc2c(c1)COC2=O
3. O=C(/C=C/c1cc2ccccc2[nH]c1=O)c1ccc(Cl)cc1
4. OC(CCC(O)(c1ccccc1)c1ccccc1)(c1ccccc1)c1ccccc1
5. CCC(CCC(C)C1CCC2C3CC=C4CC(O)CCC4(C)C3CCC12C)C(C)C (stereo unspecified) (tested in a mixture with another compound)

Output:
[39.4, 74.1, 2.8, 80.5, 79]

For each of the molecules below, state growth.
1. COc1cccc(CCC2C(=O)CCCC2=O)c1
2. CC12CCC3C(CCC4CC(=O)/C(=C\O)CC43C)C1CCC(=O)O2 (stereo unspecified)

Output:
[114, 100]

* * *

- Tested on: ACHN renal
- TEST_SUMMARY: NCI-60 one-dose screen, 48 h (100 = growth as untreated, 0 = no growth, -100 = all killed)
- EXPERIMENTAL_PARAMETERS: 10 µM unless noted
The panel holds about 83,000 compounds, 20% with a hit somewhere; the sample as a whole holds those more often.
Provide the recorded growth for the entries that follow.
Give bare numbers, in %.

Assay ACHN renal, sample O=C1C2C3C=CC(O3)C2C(=O)N1Nc1ccccc1 (stereo not given) , growth read: 103

Assay ACHN renal, sample NC(N)=N/N=C(/c1ccccc1)c1ccc(Cl)cc1 , growth read: 104

Assay ACHN renal, sample C=CCCCCCCCCC(=O)[O][Sn]([CH2]CCC)([CH2]CCC)[CH2]CCC , growth read: -99.6

Assay ACHN renal, sample CCN1C(=O)c2ccc3c4c(ccc(c24)C1=O)C(=O)N(CCCNCc1ccccc1OC)C3=O , growth read: -67.1

For each of the compounds below, state growth.
1. O=C(c1nn(-c2ccc(Cl)cc2)cc1O)n1nc(C(F)(F)F)cc1-c1ccccc1
2. CCN1CCN(c2cc(-c3cn[nH]c3-c3cc(C)cc(OC)c3)nc(-c3cccnc3)n2)CC1

Output:
[38.8, 73.7]

For each of the compounds below, state growth.
1. CCCOc1ccc2c(c1)CC[C@@H]1[C@@H]2CC[C@@]2(C)[C@H]1CC[C@]2(C)O
2. CCC(CCC(C)C1CCC2C3CC=C4CC(O)CCC4(C)C3CCC12C)C(C)C (stereo not given) (tested in a mixture with another compound)
3. O=C1NCC(Nc2ccc(Br)cc2Cl)C(=O)N1 (stereo not given)
4. Cc1ccccc1NC(=O)c1cc2ccccc2cc1O

Output:
1. 93.9
2. 88
3. 96.2
4. 34
